Molecular target: TetR (class B, Tn10) (UniProt P04483)
Sequence (P04483 whole entry): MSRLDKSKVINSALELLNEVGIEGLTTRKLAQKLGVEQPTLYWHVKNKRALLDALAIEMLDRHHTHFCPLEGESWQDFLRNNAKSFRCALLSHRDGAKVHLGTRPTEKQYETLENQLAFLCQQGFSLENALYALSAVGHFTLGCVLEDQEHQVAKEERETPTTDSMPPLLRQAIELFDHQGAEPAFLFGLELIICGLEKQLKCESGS
Experiment: TetR repression strength (sort-seq, GFP reporter) (relative to tetO2 = 1); higher = stronger repression
Conditions: E. coli
In all, about 18,000 sequences were measured (“TetR repression strength (sort-seq, GFP reporter)”: median about 0.23, highest 2% from about 0.68 on). The full list was thinned out, with the highest values kept by preference.
Readout: TetR repression strength
Lab note: jot down the number only; don't add units.

What does the record list as TetR repression strength for TCCCGTATAGTCTGTGAGA ? 0.0605

Then this sequence: TCCCTTGTAGTCTTGGAGA 0.287

Quick one: TCCCTCGGAGTCTGCGAGA 0.522

Another: TCCCCTGCAGTATTAGAGA 0.211

Can you handle TCCCGTAAAGTTCATGAGA next? 1.21

Item: TCCCTTTCAGTGACCGAGA 0.946

Request: TCCCTTGCAGTGACCGAGA 0.315

Okay, and TCCCTTCAAGTGTAAGAGA ? 0.158

Repeat for the following sequence: TCCCTCGTAGTCTGAGAGA 1.03

What about this sequence? TCCCGTCAAGTTCATGAGA 0.15

And what about the sequence TCCCGATAAGTCGTCGAGA ? 0.0276

Same read-out for TCCCGATCAGTGACCGAGA ? 0.715

Another sequence to check: TCCCATCGAGTACTGGAGA 1.02

Would you mind doing TCCCTTGGAGTCATGGAGA as well? 0.307

Also, TCCCTATAAGTTATAGAGA please. 0.651

Now consider TCCCGGAGAGTATGCGAGA and answer again. 0.159

One more sequence: TCCCTGTCAGTCACCGAGA 0.664

Same for TCCCTGCCAGTATAGGAGA 0.308

Likewise for TCCCGGTGAGTAAACGAGA ? 0.0592

Follow-up item: TCCCGGGTAGTGACGGAGA 0.181

Let us now turn to TCCCGGTTAGTATGCGAGA 0.19

Param item: TCCCTATCAGTGGGGGAGA 0.378

Can you handle TCCCAGTGAGTTCGCGAGA next? 0.402

// same read-out, input: TCCCTATGAGTTATAGAGA 0.439

For TCCCAGGCAGTCCGTGAGA then? 0.2

// same read-out, input: TCCCGGAAAGTCACAGAGA 0.108

Repeat with TCCCGTACAGTTCATGAGA 1.18

How about TCCCGGTGAGTGGACGAGA ? 0.496

// repeat for TCCCTGTCAGTCATAGAGA and report 0.617

How about TCCCAGCGAGTCCAGGAGA ? 0.27

// next record TCCCTCGGAGTCTGTGAGA 0.215

Try TCCCTCATAGTGGGCGAGA next. 0.213

Here is the next sequence: TCCCTCGGAGTTGGTGAGA 0.237

Another sequence: TCCCTGGGAGTGACAGAGA 0.299

TCCCGGGTAGTCAAGGAGA , same question. 0.296

And for TCCCATCTAGTGTGGGAGA ? 1.06

Also TCCCTTTTAGTATACGAGA , if possible. 0.242

###

Target: TetR (class B, Tn10)
Test: TetR repression strength (sort-seq, GFP reporter) (relative to tetO2 = 1); higher = stronger repression
Settings: E. coli
Over roughly 18,000 sequences, “TetR repression strength (sort-seq, GFP reporter)” has its median near 0.23; the highest 2% begin near 0.68. The sample as a whole holds a higher share of the highest values than the screen did.
Answer each item with its documented TetR repression strength.
Please give the numeric answer without any surrounding text.

Quick one: TetR repression strength for TCCCTTAAAGTCTACGAGA ? 0.771

Same for TCCCTATTAGTGTGTGAGA 0.219

Entry to check: TCCCCGAGAGTGTGTGAGA 0.248

###

Biological target: TetR (class B, Tn10) (UniProt P04483)
Experiment: TetR repression strength (sort-seq, GFP reporter) (relative to tetO2 = 1); higher = stronger repression
Conditions: E. coli
In all, about 18,000 sequences were measured (“TetR repression strength (sort-seq, GFP reporter)”: median about 0.23, highest 2% from about 0.68 on). This excerpt belongs to a sample that is enriched for the highest values.
Please enter Condition met where TetR repression strength is greater than or equal to 0.3, and Condition not met where it is lower.

Check the entry TCCCTTTAAGTTGACGAGA : does TetR repression strength equal or exceed 0.3? Condition met

Consider next the sequence TCCCGGTCAGTGAGAGAGA in the same way. Condition met

Now the sequence TCCCCACCAGTGTCAGAGA Condition met

Do the same for TCCCCGAAAGTCGCGGAGA please Condition not met

Same thing, different sequence: TCCCAGCAAGTGTGTGAGA Condition not met

Query TCCCATGTAGTATGCGAGA next Condition met

Also check TCCCGGTCAGTGAAAGAGA Condition met

What do you get for TCCCCAGTAGTAGTGGAGA ? Condition not met

Another sequence to check: TCCCAGCAAGTGAGTGAGA Condition not met

And the next one, TCCCTTATAGTGCCTGAGA ? Condition not met

Now this one: TCCCTAACAGTGAAAGAGA Condition met

And for TCCCACCCAGTATCAGAGA ? Condition not met

Proceed to TCCCTTACAGTTCCAGAGA Condition met

And then TCCCGTCTAGTGAAGGAGA , what is it? Condition met

Item: TCCCAATCAGTGGCAGAGA Condition met

Param item: TCCCTATCAGTGAGTGAGA Condition met

Next entry: TCCCTATCAGTGGAAGAGA Condition met

And the next one, TCCCAATAAGTGTGCGAGA ? Condition not met

Try this sequence too: TCCCTTCAAGTGCTCGAGA Condition not met

Also TCCCCGTCAGTAGGCGAGA , if possible. Condition not met

###

Molecular target: TetR (class B, Tn10) (UniProt P04483)
Experiment: TetR repression strength (sort-seq, GFP reporter) (relative to tetO2 = 1); higher = stronger repression
Conditions: E. coli
The full ranking holds about 18,000 sequences; the median of “TetR repression strength (sort-seq, GFP reporter)” is about 0.23, and the highest 2% start at about 0.68. The sample holds the highest values, similar sequences and a random draw of the others, so the mix is not that of the screen.
Readout: TetR repression strength
Give a plain numeric answer without units written out.

Which measured TetR repression strength value corresponds to TCCCGTCTAGTGTGTGAGA ? 0.237

Here is the next sequence: TCCCTATGAGTGGTAGAGA 0.288

Now try TCCCGTTGAGTGTATGAGA . 0.181

Now this one: TCCCTAAAAGTGGAAGAGA 0.104

Let us now turn to TCCCCGTGAGTCGATGAGA 0.313

Would you kindly repeat that for TCCCTGCAAGTGGAAGAGA ? 0.276

// next record TCCCTACCAGTCGCGGAGA 0.967

Then this sequence: TCCCTACCAGTCGGAGAGA 0.278

Source of measurements: a collection of fitness landscapes (doi:10.1038/s41467-024-54723-y)
